# measurement-notes: protein stability index of a GFP-peptide fusion (yeast GPS) (PSI 1-4); higher = more stable; sorted into four equal gates, so the index is relative within each strain
# condition-info: pdr5∆
reported-property: protein stability index
Please give the numeric answer without any surrounding text.

I would be grateful if you could share the reported protein stability index for NRPNTLDPALLRPGRID [RPT1] .
3.01

// lookup protein stability index for RLAKKPSMKKIKIEPSA [SIR3]
3.06

Query (sequence): EGGEAEFIFGTYNMIDA [ARP7] ; field requested: protein stability index
2.66

Form field: reported protein stability index of DEEMLTSCTIPKAVVDH [GAL11]
2.77

Value lookup for protein stability index; key = EQWLRQFEVSDDEKNDK [SNF2]
3.21

For METRINILLRERDSYKL [YIL149C/MLP2] , what is its reported protein stability index?
1.59

Looking for the measured protein stability index of AITNTGPREDTTRVGGG [RPS5] , can you help?
3.05

Field request: protein stability index | item: GIEYNRVTNTTSTDFPG [RPC40]
3.33

Requested read-out: protein stability index. Entry: RNEVLESMDFLVLADAF [YCS4]
2.31

Item under review: EKVTRYNRHKLQELIVN [RPO31] . Reported protein stability index?
1.44

Query (sequence): EVINKEIENATKDIFPL [RPS1A] ; field requested: protein stability index
2.74

Item under review: LEDLKDVYASKVRLNAS [PRP8] . Reported protein stability index?
2.1

Quick check: protein stability index of RERRIHVTQEDFELAVG [RPT6] ?
2.74

Requested field: protein stability index. Item: LSPSGHKTFLVANVKDL [RPL32]
3.33

What value of protein stability index has been reported for the following sequence? MLETAGFSMNNPYNIVP [SMC3]
3.18

I am curious: what protein stability index value has been reported for KANEKKESDESKSAFSF [YJL041W/NSP1] ?
3.4

Looking for the measured protein stability index of ASLVDYVQVRQPIFVAH [RPS5] , can you help?
1.98

Form field: reported protein stability index of KAEKKVELHGKRKLDIG [PRP8]
2.8

Could you share which protein stability index value was measured for LGYKAKQGFVIYRVRVR [RPL15A] ?
2.04

Entry YLDADVAKLANWFLEVY [YML031W/NDC1] has what protein stability index?
2.63

// query protein stability index value for entry SNIDYQTLLANSDHAKF [SNF2]
2.28

Given the entry EDDEFEDFPIDTWANGE [SEM1] , report its measured protein stability index.
3.26

// query protein stability index value for entry ITSIPKPLTENCKKKKK [RMP1]
2.75

Item TYQLCVRLRSNVIKTGI [RPN3] has what recorded protein stability index?
3.35

Fill in the blank: the reported protein stability index of MAPNTSRKQKIAKTFTV [RPL22A] is ____.
2.03

Name the reported protein stability index value associated with the sequence QDSIDISIKDNKLVMKS [GAL11]
2.77

So what's the measured protein stability index for this one? QNFENDFSLRYISNLLY [REC8]
2.29

Given the entry TGHPKGAAGAWMMNGAL [FAS2] , report its measured protein stability index.
1.5

What protein stability index value was documented for this sequence, SQKQTLIKKPLTVFYAI [SSN3] ?
2.13

Name the reported protein stability index value associated with the sequence QNRSLQEHNIQDSNVMP [SNF2]
3.08

Can you look up the measured protein stability index of EPDLESQISKAEMEADS [SMC4] for me?
3.39

Would you kindly share the measured protein stability index for QPNEISFKYLSNNDEDD [RGR1] ?
2.29

Record request: protein stability index value, item PKSKSLPNEMSQNDGFV [RPO31]
3.14

# input sequence: VIDIEIHVLEQDGGIMG [SKI6] ; wanted: its protein stability index
2.56

Tell me the measured protein stability index of LFQDGSASLHTRSLKYG [RRP4] , please.
2.76

Form field: reported protein stability index of RPDITMYCRPAPSDFSE [GRR1]
2.12

Give its protein stability index value. Item: FNKYADPTLTTTTSFTT [RPN4]
2.57

Tell me the measured protein stability index of CAINSKSRGSDLQYLGE [RRP6] , please.
3.18

// lookup protein stability index for LRSKTSAGRIESNNPSH [SIR4]
2.48

Which protein stability index is listed for DSGRGAPLAKVVFRDPY [RPL2A] ?
2.83

Would you kindly share the measured protein stability index for KFPETSYPILNESSTFL [SIN4] ?
2.71

Would you kindly share the measured protein stability index for SYANHLEESDVEDTLHV [YOR098C/NUP1] ?
2.4

Item KTYGISDDIISQVDPIT [FAS2] has what recorded protein stability index?
1.1

Param item = FDQAGKKVSRRNARATR [RPL13A] ; retrieve measured protein stability index.
3.36

GET /values?readout=protein stability index&item= TITKRNGAFQNSSNLSY [RRP4]
3.02

# protein stability index lookup, item VDENDEVLLAGFGRKGK [RPS23A]
1.41

// lookup protein stability index for SPDQMRNLQMGLRNQNM [GRR1]
3.52

Can you look up the measured protein stability index of SFLEGSKALNSILESSM [RGR1] for me?
1.59

For the sequence shown here, ENMWPFSYQEVEFKLPK [CDC53] , give the reported protein stability index.
2.19

Given KKMMNTLVHTRVKIANT [SSN2] , state its recorded protein stability index.
2.35

Which protein stability index reading was recorded for the sequence SRMFEEVSGSIQYKKEY [SMC1] ?
2.02

Sample VDIGGKQHAVLMLGSVN [RRP4] — what was its protein stability index?
2.66

Param item = TTARNDLGVVFARAANG [CSL4] ; retrieve measured protein stability index.
2.02

Give the measured protein stability index of ETITTKRVPNPNFLGNC [SWP82] .
2.58

Consider the sequence YNRHKLQELIVNGPNVH [RPO31] and give its measured protein stability index.
1.48

Item under review: NDITNLQLSKTPLSIKI [SRB8] . Reported protein stability index?
2.52

Which protein stability index value belongs to KVVKAIRIYFTEKDDNK [NUT1] ?
2.67

Please report the recorded protein stability index for LRLFINEEGDWSCIVVE [ITC1] .
2.62

Bench note: what protein stability index did KEYENHSGELMRQQSKE [SMC1] show?
2.85

// protein stability index lookup, key: LLKELSKNAQFICTTFR [SMC3]
2.01

Which value of protein stability index has been reported for MAGVKAYELRTKSKEQL [RPL35A] in the records?
3.38

---

So I've got a bunch of sequences here, and I need their protein stability index values.
# measurement-notes: protein stability index of a GFP-peptide fusion (yeast GPS) (PSI 1-4); higher = more stable; sorted into four equal gates, so the index is relative within each strain
# condition-info: pdr5∆
Please state the value as a number alone, without comment.

protein stability index for ENTKDNLVKEKEALQNN [SMC1] ?
3.26

Name the reported protein stability index value associated with the sequence ISSAKLDKFTDGGLFTL [QCR2]
3.06

May I ask what protein stability index has been recorded for NNIEENLRLLNSIDSTS [ECM29] ?
3.33

Recorded protein stability index of GSIPSLTTQFVTDKYTA [YDL088C/ASM4] , please.
2.54

Which value of protein stability index has been reported for SKKRQAEKLVPLPICHA [YML031W/NDC1] in the records?
2.5

For the sequence NLGRAVFWEIQSRVPTS [PRP8] , what protein stability index is on record?
2.22

Query (sequence): FGPIKVELPTKETVEIG [FAS1] ; field requested: protein stability index
3.28

protein stability index for GNPLSIGTLEEIIDDDH [RPT2] ?
3.43

Fill in: protein stability index of ASLVPEGNQGSLQEDVS [MED8] is ___
3.24

I have this sequence here, HFFSKSCSFFAKLSDTL [NUT1] , and I need its recorded protein stability index.
1.77

Which value of protein stability index has been reported for KLYQTEPSGIYSSWSAQ [PRE6] in the records?
2.15

Quick one: protein stability index of GALPPDLSLIVKARHGG [CYT1] ?
1.97

protein stability index for NTVPQVTNFNSTNEDQN [SRB5] ?
3.21

Given the entry SEVANNGLIISWSNGKI [RRP42] , report its measured protein stability index.
1.66

---

Exercise: state measured protein stability index for each of the sequences provided.
# measurement-notes: protein stability index of a GFP-peptide fusion (yeast GPS) (PSI 1-4); higher = more stable; sorted into four equal gates, so the index is relative within each strain
# condition-info: ubr1∆
Lab note: jot the number down without any unit.

I have this sequence here, RKKKFVLDVDPKYAKQK [ISW2] , and I need its recorded protein stability index.
2.66

If you can, please state the reported protein stability index value of PKFFLGEENRVRFIGDS [QCR2] .
3.2

Suppose we examine the sequence EKKDDNSSKPAFSFGAK [YJL041W/NSP1] ; what protein stability index value has been reported?
2.25

Given the sequence AMHNSKAASSTRIFQAL [POP1] , what is its reported protein stability index?
2.89
